Readings of melting point for the listed molecules

Solved cases below.
// sample Cc1cccc(NC(=O)CSc2cc(-c3ccccc3)cc(Sc3ccccc3)n2)c1 [Compound 2m] , its melting point was 122 to 123 °C

Just so you know, measured melting point for Cc1cccc(NC(=O)CSc2nc(-c3ccccc3)cc(-c3cccc4ccccc34)n2)c1 [Compound 2f] came out at 147 to 148 °C

The recorded melting point for COC(=O)[C@@H](NC(=O)CSc1nc(-c2ccc(F)cc2)cc(-c2ccc(F)cc2)n1)C(C)C [Compound 3e] is 174 to 175 °C

The measured melting point associated with COC(=O)[C@H](Cc1c[nH]cn1)NC(=O)CSc1cc(-c2ccccc2)cc(-c2ccc(F)cc2)n1 [Compound 3n] reads 155 to 156 °C

Entry under test: Cc1cccc(NC(=O)CSc2nc(Sc3ccccc3)cc(-c3ccccc3)n2)c1 [Compound 2i] . Its melting point was 127 to 128 °C

# melting point (molecule: CC[C@H](C)[C@H](NC(=O)CSc1nc(-c2ccc(F)cc2)cc(-c2ccc(F)cc2)n1)C(=O)OC [Compound 3f] ) is 150 to 151 °C

Record COC(=O)[C@H](Cc1ccc(O)cc1)NC(=O)CSc1cc(-c2ccccc2)cc(-c2ccc(F)cc2)n1 [Compound 3m] , field melting point: 151 to 152 °C

New cases:
get_value(item= COC(=O)[C@H](Cc1c[nH]cn1)NC(=O)CSc1nc(-c2ccc(F)cc2)cc(-c2ccc(F)cc2)n1 [Compound 3h] , readout=melting point) returns 107 to 108 °C

---

Measured On: PA–PB1 interaction (6His-PA(239–716) / GST-PB1(1–25)) (Influenza A virus, UniProt P03433)
Assay Comment: biochemical
Assay type: binding
Metric Name: pIC50
Formally, pIC50 is defined as -log10 of the concentration c, with c in mol/L.

Look over these answered cases.
Entry Cc1cccc(NC(=O)CSc2cc(-c3ccccc3)cc(Sc3ccccc3)n2)c1 — recorded pIC50 = 3.85

The reported pIC50 of the compound Cc1cccc(NC(=O)CSc2nc(-c3ccccc3)cc(-c3ccc(Cl)cc3)n2)c1 was 4.07

Sure, the documented pIC50 for COC(=O)[C@H](Cc1c[nH]cn1)NC(=O)CSc1nc(-c2ccccc2)cc(-c2ccc(F)cc2)n1 is 4.15

Sure, the documented pIC50 for Cc1cccc(NC(=O)CSc2nc(C(=O)Nc3ccccc3)cc(-c3ccccc3)n2)c1 is 3.90

compound Cc1cccc(NC(=O)CSc2nc(-c3ccc(F)cc3)cc(-c3ccc(F)cc3)n2)c1 , pIC50 observed: 3.86

Next:
The recorded pIC50 for entry Cc1cccc(NC(=O)CSc2nc(Sc3ccccc3)cc(-c3ccc(F)cc3)n2)c1 equals 3.80

Data point: COC(=O)[C@H](Cc1c[nH]cn1)NC(=O)CSc1nc(-c2ccc(F)cc2)cc(-c2ccc(F)cc2)n1 ; pIC50 = 3.97

Documented pIC50 of COC(=O)[C@H](Cc1ccc(O)cc1)NC(=O)CSc1nc(-c2ccccc2)cc(-c2ccc(F)cc2)n1 : 3.76

---

Measured On: PA–PB1 interaction (6His-PA(239–716) / GST-PB1(1–25)) (Influenza A virus)
Assay Comment: biochemical
Type: binding
Metric Name: IC50 (µM)
Your answer is read as µM, so omit the unit and give the number.

These solved cases illustrate the format of a correct answer.
Item: Cc1cccc(NC(=O)CSc2nc(-c3ccc(Cl)cc3)cc(-c3ccc(Cl)cc3)n2)c1 [Compound 2a] | IC50: 70.8

Record summary for Cc1cccc(NC(=O)CSc2nc(Sc3ccccc3)cc(-c3ccccc3)n2)c1 [Compound 2i] : reported IC50 = 28.8

compound Cc1cccc(NC(=O)CSc2nc(-c3ccccc3)cc(-c3ccc(F)cc3)n2)c1 [Compound 2d] , IC50 observed: 90.1

Now look at this one.
Recorded result, Cc1cccc(NC(=O)CSc2cc(-c3ccc(Cl)cc3)cc(Sc3ccccc3)n2)c1 [Compound 2n] , IC50: 87

---

We begin with a simple list: items and their reported melting point.

Reference set, count: 5
Please fill in: melting point reported for CC[C@H](C)[C@H](NC(=O)CSc1cc(-c2ccccc2)cc(-c2ccc(F)cc2)n1)C(=O)OC = 76 to 77 °C

So for Cc1cccc(NC(=O)CSc2cc(-c3ccc(Cl)cc3)cc(Sc3ccccc3)n2)c1 , the logged melting point turned out to be 93 to 95 °C

# melting point of CC[C@H](C)[C@H](NC(=O)CSc1cc(-c2ccccc2)cc(-c2ccccc2)n1)C(=O)OC = 70 to 71 °C

Memo: Cc1cccc(NC(=O)CSc2nc(-c3ccccc3)cc(-c3ccc(F)cc3)n2)c1 , reported melting point: 186 to 190 °C

Memo: COC(=O)[C@H](Cc1c[nH]cn1)NC(=O)CSc1nc(-c2ccccc2)cc(-c2ccc(F)cc2)n1 , reported melting point: 77 to 78 °C

# evaluate next
Looking up Cc1cccc(NC(=O)CSc2nc(-c3ccc(F)cc3)cc(-c3ccc(Cl)cc3)n2)c1 , I found its melting point recorded as 213 to 217 °C

---

Test system: MDCK cells
Assay Comment: Cytotoxicity assay (MTT) in MDCK cells
Condition Context: read-out: CC50 (MDCK Cells); MTT assay, MDCK cells, 48 h; 50% decrease in cell viability
Metric Name: CC50

The value of CC50 measured for the compound CCC(CC)O[C@@H]1C=C(C(=O)O)C[C@H](N)[C@H]1NC(C)=O [OSC, oseltamivir carboxylate] turned out to be > 250 µM

---

Assay Comment: Cytotoxicity assay (MTT) in MDCK cells
Condition Context: dog, MDCK cells
Metric Name: CC50 at 48 h

Recorded CC50 at 48 h (compound NC(=O)c1ncn(C2O[C@H](CO)[C@@H](O)[C@H]2O)n1 (stereo partly shown) [RBV, reference compound] ): > 250 µM

---

Assay Comment: in vitro
Condition Context: dog
Doc: threshold 100 µM (exclusive). Items with CC50 at 48 h beneath it return condition met; others return condition not met.

These solved cases illustrate the format of a correct answer.
## Input Lab log: compare recorded CC50 at 48 h with 100 µM; is it strictly lower for Cc1cccc(NC(=O)CSc2nc(C(=O)Nc3ccccc3)cc(-c3ccccc3)n2)c1 [Compound 2l] ?
## Output condition met

## Input For COC(=O)[C@@H](NC(=O)CSc1nc(-c2ccc(F)cc2)cc(-c2ccc(F)cc2)n1)C(C)C [Compound 3e] , is the recorded CC50 at 48 h below the cut-off of 100 µM?
## Output condition not met

## Input Lab log: compare recorded CC50 at 48 h with 100 µM; is it strictly lower for COC(=O)[C@@H](NC(=O)CSc1nc(-c2ccccc2)cc(-c2ccc(F)cc2)n1)C(C)C [Compound 3a] ?
## Output condition not met

## Input Below 100 µM on CC50 at 48 h? Entry Cc1cccc(NC(=O)CSc2nc(-c3ccc(Cl)cc3)cc(-c3cccc4ccccc34)n2)c1 [Compound 2g]
## Output condition not met

## Input Given the entry Cc1cccc(NC(=O)CSc2nc(Sc3ccccc3)cc(-c3ccccc3)n2)c1 [Compound 2i] , would its reported CC50 at 48 h be below 100 µM?
## Output condition met

## Input Hello, is CC50 at 48 h of the following molecule strictly smaller than 100 µM? Cc1cccc(NC(=O)CSc2nc(Sc3ccccc3)cc(-c3ccc(Cl)cc3)n2)c1 [Compound 2j]
## Output condition met

More entries:
## Input Hi there! Is CC50 at 48 h for COC(=O)[C@H](Cc1ccc(O)cc1)NC(=O)CSc1nc(-c2ccc(F)cc2)cc(-c2ccc(F)cc2)n1 [Compound 3g] below 100 µM, do you know?
## Output condition not met

---

melting point values, listed per item

Please review the entries below; each comes with its answer.
For COC(=O)[C@@H](NC(=O)CSc1nc(-c2ccccc2)cc(-c2ccc(F)cc2)n1)C(C)C the compound record lists melting point as 152 to 153 °C

The value of melting point measured for the compound COC(=O)[C@H](Cc1ccc(O)cc1)NC(=O)CSc1cc(-c2ccccc2)cc(-c2ccccc2)n1 turned out to be 111 to 112 °C

Further cases:
Item: COC(=O)[C@H](Cc1ccc(O)cc1)NC(=O)CSc1nc(-c2ccccc2)cc(-c2ccc(F)cc2)n1 | melting point: 167 to 168 °C

Input Cc1cccc(NC(=O)CSc2nc(Sc3ccccc3)cc(-c3ccc(F)cc3)n2)c1 . Output melting point: 146 to 147 °C

Memo: Cc1cccc(NC(=O)CSc2nc(C(=O)Nc3ccccc3)cc(-c3ccccc3)n2)c1 , reported melting point: 181 to 182 °C

Per the records, this compound ( COC(=O)[C@@H](NC(=O)CSc1cc(-c2ccccc2)cc(-c2ccccc2)n1)C(C)C ) has melting point equal to 63 to 64 °C

---

// reported melting point per item

Recorded result, Cc1cccc(NC(=O)CSc2nc(-c3ccc(F)cc3)cc(-c3ccc(F)cc3)n2)c1 , melting point: 210 to 211 °C

// recorded melting point for Cc1cccc(NC(=O)CSc2nc(-c3ccccc3)cc(-c3ccc(Cl)cc3)n2)c1 : 204 to 206 °C

Measured melting point, Cc1cccc(NC(=O)CSc2nc(-c3ccc(F)cc3)cc(-c3cccc4ccccc34)n2)c1 : 145 to 147 °C

Note: attention shifts to another entry.
Cc1cccc(NC(=O)CSc2nc(-c3ccc(Cl)cc3)cc(-c3ccc(Cl)cc3)n2)c1 has a reported melting point of 225 to 227 °C
